Would you mind telling me the reported Met Kinase % Inhibition of each entry?
# Tested on: MET
# method description: MET biochemical kinase assay
# Parameters: species or system human; concentration or dose not given beside the values
Numbers only, in %.

Example results:
> print(dat)
                                    compound  unit.symbol  recorded.result
 1  O=C1Nc2ccc(S(=O)(=O)Nc3ccc(C(F)(F)F)cc3)cc2C1=Cc1ncc[nH]1 [10720/E11]            %            -10.4
 2  COc1ccc(C=C2C(=O)Nc3c(Br)cc(Br)cc32)c2ccccc12 [10729/A03]            %             27.5
 3  COc1c(O)ccc(C=C2C(=O)Nc3ccc(S(=O)(=O)N4CCOCC4)cc32)c1[N+](=O)[O-] [10733/F11]            %             44.4
 4  COc1c(I)cc(C=C2C(=O)Nc3ccc(S(=O)(=O)Nc4ccc(C(F)(F)F)cc4)cc32)cc1C(C)(C)C [10732/E11]            %             41.4
 5  CSc1ccc(C=C2C(=O)Nc3ccc(Br)c(C)c32)cc1 [10729/C04]            %             20.7
 6  Cc1c(Br)ccc2c1C(=Cc1cc([N+](=O)[O-])ccc1O)C(=O)N2 [10733/C10]            %             20.5
 7  CN1C(=O)C(=C2C(=O)Nc3ccc(S(=O)(=O)Nc4ccc(C(F)(F)F)cc4)cc32)c2ccccc21 [10731/E10]            %             35.5
 8  Cc1[nH]c(C=C2C(=O)Nc3ccc(I)cc32)c(Br)c1Br [10717/B11]            %             91.0
 9  Cc1c(Br)ccc2c1C(=Cc1cc3c([nH]1)CCCC3)C(=O)N2 [10721/C05]            %             48.7
10  CCOC(=O)CCc1c(C(=O)OCC)[nH]c(C=C2C(=O)Nc3c(Br)cc(Br)cc32)c1CC(=O)OCC [10718/A05]            %             36.1

# map each compound to its Met Kinase % Inhibition
1. COc1cc(Br)cc(C=C2C(=O)Nc3c(Br)cc(Br)cc32)c1O [10733/A08]
2. CCOc1ccccc1C=C1C(=O)Nc2ccc(S(=O)(=O)Nc3ccc(C(F)(F)F)cc3)cc21 [10717/E02]
3. Cc1cc(C=C2C(=O)Nc3ccc(I)cc32)ccc1O [10723/B06]
4. CNS(=O)(=O)c1ccc2c(c1)C(=CC(c1cccs1)C(F)(F)F)C(=O)N2 (centres unmarked) [10732/D02]
5. COc1c(Br)cc(C=C2C(=O)Nc3ccc(CCCl)cc32)cc1C(C)(C)C [10732/G07]

Resp:
[27.2, 24.0, 90.6, 50.2, 23.9]

# map each compound to its Met Kinase % Inhibition
1. CNS(=O)(=O)c1ccc2c(c1)C(=Cc1coc3ccc(Cl)cc3c1=O)C(=O)N2 [10730/D06]
2. O=C1Nc2ccc(I)cc2C1=Cc1cccc(C(F)(F)F)c1F [10728/B07]

Resp:
[55.9, 82.2]
